measurement.target: Monoamine oxidase A (MAO-A) (Homo sapiens, UniProt P21397)
Sequence (P21397 whole entry, species assumed): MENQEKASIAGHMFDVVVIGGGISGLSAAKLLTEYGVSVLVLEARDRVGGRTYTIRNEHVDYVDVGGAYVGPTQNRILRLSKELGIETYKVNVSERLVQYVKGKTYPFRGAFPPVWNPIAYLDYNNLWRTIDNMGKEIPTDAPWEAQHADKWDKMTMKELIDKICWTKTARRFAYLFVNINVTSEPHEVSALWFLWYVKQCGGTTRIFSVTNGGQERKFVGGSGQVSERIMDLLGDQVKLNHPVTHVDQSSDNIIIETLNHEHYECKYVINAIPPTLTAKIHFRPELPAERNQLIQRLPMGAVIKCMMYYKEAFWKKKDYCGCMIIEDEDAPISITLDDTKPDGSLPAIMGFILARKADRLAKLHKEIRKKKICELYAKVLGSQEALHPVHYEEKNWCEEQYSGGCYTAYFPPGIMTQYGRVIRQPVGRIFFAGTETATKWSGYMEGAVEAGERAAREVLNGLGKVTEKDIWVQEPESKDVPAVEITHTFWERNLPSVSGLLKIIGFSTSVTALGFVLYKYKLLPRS
assay.explanation: Monoamine oxidase A inhibition (p-tyramine substrate, H2O2/vanillic acid/HRP readout)
Format: biochemical
readout.label: pIC50
// pIC50: -log10(molar conc.)

Report value only: pIC50, Monoamine oxidase A (MAO-A) (Homo sapiens, UniProt P21397), CC(C)c1cc2c(c(O)c1O)[C@@]1(C(=O)O)CCCC(C)(C)[C@@H]1CC2 [Carnosic acid, carnosic acid]
5.36

* * *

measurement.target: human dopamine transporter (hDAT) (Homo sapiens, UniProt Q01959)
Sequence (Q01959 whole entry): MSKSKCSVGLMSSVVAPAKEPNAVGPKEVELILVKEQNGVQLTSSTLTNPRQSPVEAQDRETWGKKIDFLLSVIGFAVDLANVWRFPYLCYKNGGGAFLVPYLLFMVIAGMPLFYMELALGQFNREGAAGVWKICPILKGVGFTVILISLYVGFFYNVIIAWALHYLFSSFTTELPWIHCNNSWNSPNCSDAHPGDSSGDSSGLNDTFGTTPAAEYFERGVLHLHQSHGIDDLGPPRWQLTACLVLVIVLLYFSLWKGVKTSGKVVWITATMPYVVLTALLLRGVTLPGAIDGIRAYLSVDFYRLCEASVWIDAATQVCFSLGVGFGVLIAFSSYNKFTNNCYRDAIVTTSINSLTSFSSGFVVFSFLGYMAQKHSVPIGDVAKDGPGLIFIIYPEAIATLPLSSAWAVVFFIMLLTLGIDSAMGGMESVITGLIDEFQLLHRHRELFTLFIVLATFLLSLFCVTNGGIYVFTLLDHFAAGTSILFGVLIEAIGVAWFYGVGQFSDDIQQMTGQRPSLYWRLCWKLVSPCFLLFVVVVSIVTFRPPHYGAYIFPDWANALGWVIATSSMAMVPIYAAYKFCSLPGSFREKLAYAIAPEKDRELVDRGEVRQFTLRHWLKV
assay.explanation: Inhibition of dopamine reuptake into transfected CHO-Ki/hDAT cells
particulars: 50 nM [3H]Dopamine
readout.label: IC50
Param answer (str): number followed by unit.

Report IC50 from human dopamine transporter (hDAT) (Homo sapiens, UniProt Q01959) testing of `CC(C)c1cc2c(c(O)c1O)[C@@]1(C(=O)O)CCCC(C)(C)[C@@H]1CC2`
15 µM
